target: mGluR5 receptor (human) (Homo sapiens); assay: Functional Ca2+ influx assay in CHO-hmGluR5 cells (DHPG 10 μM, FLIPR)
Sequence (P41594 21-1212): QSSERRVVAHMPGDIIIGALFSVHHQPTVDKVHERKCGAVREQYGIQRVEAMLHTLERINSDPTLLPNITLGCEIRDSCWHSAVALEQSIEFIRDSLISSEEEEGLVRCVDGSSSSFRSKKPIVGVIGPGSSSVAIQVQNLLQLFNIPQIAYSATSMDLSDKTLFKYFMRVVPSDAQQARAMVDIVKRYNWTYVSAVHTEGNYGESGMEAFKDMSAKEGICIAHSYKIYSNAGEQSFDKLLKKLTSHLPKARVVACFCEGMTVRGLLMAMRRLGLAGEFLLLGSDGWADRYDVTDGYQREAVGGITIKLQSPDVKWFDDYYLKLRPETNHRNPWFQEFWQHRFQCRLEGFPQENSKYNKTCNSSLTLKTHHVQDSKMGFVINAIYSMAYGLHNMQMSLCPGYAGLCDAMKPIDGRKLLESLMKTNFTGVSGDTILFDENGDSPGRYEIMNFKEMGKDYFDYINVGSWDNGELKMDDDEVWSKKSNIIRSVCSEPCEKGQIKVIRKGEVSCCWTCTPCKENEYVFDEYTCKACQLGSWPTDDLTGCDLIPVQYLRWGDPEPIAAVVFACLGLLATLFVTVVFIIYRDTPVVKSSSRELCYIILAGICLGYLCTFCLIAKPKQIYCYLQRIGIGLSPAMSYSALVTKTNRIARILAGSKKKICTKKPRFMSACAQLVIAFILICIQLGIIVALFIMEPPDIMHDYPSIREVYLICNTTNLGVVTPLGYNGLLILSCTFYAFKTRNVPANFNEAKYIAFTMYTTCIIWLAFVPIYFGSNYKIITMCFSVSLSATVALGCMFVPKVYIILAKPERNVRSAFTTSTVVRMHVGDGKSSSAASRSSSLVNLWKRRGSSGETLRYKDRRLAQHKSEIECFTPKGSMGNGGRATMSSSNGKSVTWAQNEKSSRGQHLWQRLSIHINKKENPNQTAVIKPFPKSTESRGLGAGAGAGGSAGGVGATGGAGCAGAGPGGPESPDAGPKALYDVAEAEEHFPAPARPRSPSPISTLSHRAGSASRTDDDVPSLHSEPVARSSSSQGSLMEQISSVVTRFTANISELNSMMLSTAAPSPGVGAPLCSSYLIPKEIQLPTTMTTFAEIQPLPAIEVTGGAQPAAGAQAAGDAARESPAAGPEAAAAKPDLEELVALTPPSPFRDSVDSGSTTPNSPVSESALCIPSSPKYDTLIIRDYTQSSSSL
pKi: −log10 of the molar value. Where a name gives a salt, the structure may show the parent alone.
Documented pKi across a set of molecules
REPORTED_METRIC: pKi

> print(dat)
                                   molecule  reported.metric  quantitative.readout
1  CC(C)(C)Nc1ncnc2ccc(-c3cccc(CN4C(=O)CCC4=O)c3)cc12 [Example 196, hydrochloride]              pKi                  8.33
2  O=C(c1ccccc1)N(Cc1cccc(-c2ccc3ncnc(N4CCCC4)c3c2)c1)C1CC1 [Example 121]              pKi                  8.12
3  O=C1CCC(=O)N1Cc1cccc(-c2cc3c(NC4CC4)ncnc3cc2F)c1 [Example 882]              pKi                  8.57
4  O=C1CCC(=O)N1Cc1cccc(-c2ccc3ncnc(NC4CC4)c3c2)c1 [Example 258]              pKi                  8.41

The values you see were collected from patent US20090069320A1.
